test system: glycogen synthase kinase-3 (GSK3A per assay name; protocol says GSK3B); test: GSK3 binders on small-molecule microarrays, primary screen, biochemical, small-molecule microarray, 635 nm fluorescence, GSK3A (AID 1103); conditions: small-molecule microarray binding, fluorescence 635 nm; higher = more signal; also: the record names both GSK3A and GSK3B
assay endpoint: composite z-score
Numbers only.

Examples from the recorded data:
molecule	assay endpoint	recorded value
C/C=C\[C@@H](NCc1ccccc1Br)[C@@H](O)Cc1ccccc1	composite z-score	-0.683
Cn1c(=O)n2n(c1=O)[C@H]1[C@H](O)[C@@H]3O[C@@H]3C(=NOC[C@@H](O)COCc3ccco3)[C@H]1CC2	composite z-score	0.698
CC(=O)OC[C@H]1O[C@H](C#CCCCc2ccccc2)C=C[C@@H]1OC(C)=O	composite z-score	-0.0427
CC(C)NC(=O)[C@@]1(C)c2ccccc2C(=O)N(Cc2cc(F)cc(C(F)(F)F)c2)[C@H]1c1ccc(CO)cc1	composite z-score	0.917
CC(=O)OC[C@H]1O[C@H](CC=NOC[C@@H](C)[C@H](OCc2ccccc2)C(C)C)C=C[C@@H]1OC(C)=O	composite z-score	0.1
CC(C)CON=C1C[C@@H](O)[C@@H](O)[C@@H]2[C@@H]3C(=O)N(C[C@@H]4CCCO4)C(=O)[C@@H]3CC[C@H]12	composite z-score	0.33
CC(C)CON=C1C[C@@H](O)[C@@H](O)[C@@H]2[C@@H]3C(=O)N(Cc4ccccc4)C(=O)[C@@H]3CC[C@@H]12	composite z-score	0.649
CCCCCN1CC=CC23O[C@@H]4C=CCOC(=O)[C@@H]4[C@H]2C(=O)N(C(CO)C(C)C)[C@@H]3C1=O (stereo not given in full)	composite z-score	-0.786
COC(=O)[C@@H]1CC[C@H](C)[C@@H](c2ccc(C)cc2)N1C(=O)c1ccc(C=NOC[C@@H](O)COCc2ccco2)cc1	composite z-score	-1.79

Now turn to the next molecule.
// lookup composite z-score for C[C@@H]1C=CCC(=O)OC[C@H](C)C(=O)N[C@@H](C)C(=O)OC1 0.252
